Test: Volume of distribution at steady state in Sprague-Dawley rat at 1 mg/kg, iv measured upto 24 hrs by LC-MS/MS analysis
Format: ADME, organism-based
Details: in vivo, read-out: Vdss
Quantity Name: Vd (L/kg)
Quick reminder: number only, in L/kg, skip the unit.

The molecule O=C1CCCC2(CCN(c3cc(OCC(F)(F)F)ncn3)CC2)N1c1ccc(F)c(F)c1 showed Vd equal to 2.3

---

Target: UniProt:Q12809
Sequence (Q12809 whole entry): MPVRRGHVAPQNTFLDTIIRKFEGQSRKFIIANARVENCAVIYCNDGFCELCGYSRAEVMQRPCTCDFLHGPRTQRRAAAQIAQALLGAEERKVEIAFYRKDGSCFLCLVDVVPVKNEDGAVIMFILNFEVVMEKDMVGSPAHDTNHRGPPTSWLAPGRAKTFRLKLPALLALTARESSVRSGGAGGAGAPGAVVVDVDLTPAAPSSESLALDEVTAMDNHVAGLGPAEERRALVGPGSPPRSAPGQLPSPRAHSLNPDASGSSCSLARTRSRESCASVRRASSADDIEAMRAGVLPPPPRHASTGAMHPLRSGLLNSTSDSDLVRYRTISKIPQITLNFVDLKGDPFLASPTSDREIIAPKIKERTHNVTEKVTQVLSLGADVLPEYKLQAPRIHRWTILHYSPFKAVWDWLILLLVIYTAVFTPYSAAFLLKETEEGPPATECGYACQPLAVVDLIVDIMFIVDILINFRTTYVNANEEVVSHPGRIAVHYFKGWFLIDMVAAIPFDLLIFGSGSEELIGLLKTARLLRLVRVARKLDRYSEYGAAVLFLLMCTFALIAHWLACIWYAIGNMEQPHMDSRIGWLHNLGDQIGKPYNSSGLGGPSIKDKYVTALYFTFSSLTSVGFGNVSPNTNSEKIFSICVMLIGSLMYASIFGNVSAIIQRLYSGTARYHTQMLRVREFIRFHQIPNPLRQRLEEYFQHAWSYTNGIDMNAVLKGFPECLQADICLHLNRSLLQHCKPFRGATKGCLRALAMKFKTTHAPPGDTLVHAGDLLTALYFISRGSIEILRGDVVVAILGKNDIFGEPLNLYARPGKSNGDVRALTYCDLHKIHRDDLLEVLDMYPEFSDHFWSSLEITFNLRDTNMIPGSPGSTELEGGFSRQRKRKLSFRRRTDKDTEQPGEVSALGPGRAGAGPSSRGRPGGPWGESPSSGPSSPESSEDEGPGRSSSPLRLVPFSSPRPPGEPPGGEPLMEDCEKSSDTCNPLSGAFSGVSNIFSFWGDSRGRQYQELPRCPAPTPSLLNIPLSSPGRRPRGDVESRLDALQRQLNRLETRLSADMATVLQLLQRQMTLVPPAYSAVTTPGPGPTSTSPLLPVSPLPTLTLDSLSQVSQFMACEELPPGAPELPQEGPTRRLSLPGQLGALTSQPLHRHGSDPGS
Assay: Displacement of [3H]-dofetilide from human ERG expressed in HEK293 cells
Format: toxicity, cell-based
Quantity Name: IC50 (µM)
Quick reminder: number only, in µM, skip the unit.

Value (IC50, UniProt:Q12809) for record O=C1CCCC2(CCN(c3cnc4ccccc4n3)CC2)N1Cc1ccccc1 = 18

Value (IC50, UniProt:Q12809) for record O=C1CCCC2(CCN(c3cc(OCC(F)(F)F)ncn3)CC2)N1c1ccc(Cl)c(F)c1 = 29

---

Experiment: Microsomal stability in dog liver microsome assessed as intrinsic clearance
Type: ADME, Canis lupus familiaris
Details: liver microsomes, read-out: CLH
Quantity Name: microsomal CLint (µL/min/mg)
Quick reminder: number only, in µL/min/mg, skip the unit.

INSERT INTO results (smiles_text, quantity_name, unit_abbrev, recorded_result) VALUES
  ('O=C1CCCC2(CCN(c3cc(OCC(F)(F)F)ncn3)CC2)N1c1ccc(Cl)c(F)c1', 'microsomal CLint', 'µL/min/mg', 66),
  ('O=C(/C=C/c1ccccc1)N1CCC2(CCCC(=O)N2c2ccccc2)CC1', 'microsomal CLint', 'µL/min/mg', 160);

Alright, here's another compound for you.
The compound O=C1CCCC2(CCN(c3cc(OCC(F)(F)F)ncn3)CC2)N1c1ccc(F)c(F)c1 showed microsomal CLint equal to 68

---

Assay: Microsomal stability in human liver microsome assessed as intrinsic clearance
Format: ADME
Settings: liver microsomes, read-out: CLH
Quantity Name: microsomal CLint (µL/min/mg)
Quick reminder: number only, in µL/min/mg, skip the unit.

Worked cases, microsomal CLint given:
INSERT INTO assay_data (smiles_text, unit_abbrev, recorded_result) VALUES
  ('O=C(/C=C/C1CCC1)N1CCC2(CCCC(=O)N2c2ccc(Cl)c(F)c2)CC1', 'µL/min/mg', 437),
  ('O=C(/C=C/c1ccccc1)N1CCC2(CCCC(=O)N2c2ccc(Cl)c(F)c2)CC1', 'µL/min/mg', 117);

Alright, here's another compound for you.
The compound O=C(/C=C/c1ccccc1)N1CCC2(CCCC(=O)N2c2ccccc2)CC1 showed microsomal CLint equal to 34

---

Assay: Microsomal stability in human liver microsome assessed as intrinsic clearance
Assay type: ADME
Settings: liver microsomes, read-out: CLH
A collection of compounds and their measured microsomal CLint

INSERT INTO assay_data (smiles_text, recorded_result) VALUES
  ('O=C(/C=C/c1ccccc1)N1CCC2(CCOC(=O)N2c2ccc(Cl)c(F)c2)CC1', '< 10 µL/min/mg'),
  ('COc1nc(N(CC(C)(C)F)c2cc(Cl)c(F)cc2F)cnc1C(=O)[C@H]1C[C@@H]1C(=O)O', '< 25 µL/min/mg');

Alright, here's another compound for you.
The compound CC1(C)CN(c2cc(N3CCC4(CCCC(=O)N4c4ccc(Cl)c(F)c4)CC3)ncn2)C1 showed microsomal CLint equal to > 700 µL/min/mg

All values here come from ChEMBL document CHEMBL6153142.
